Entry source: the supplement of paper PMC11616607

tested on: OVCAR8; experiment: drug sensitivity score (DSS) from 5-point dose-response viability curve (DSS (area-under-curve based score)); higher = more sensitive (stronger growth inhibition or killing); extreme values may be limits of the assay; settings: exposure time: 72 h; concentration range: 5 concentrations over 10,000-fold range
Assign drug sensitivity score to each entry below.

>>> endpoint_value("CC(=O)Nc1cccc(-n2c(=O)n(C3CC3)c(=O)c3c(Nc4ccc(I)cc4F)n(C)c(=O)c(C)c32)c1")
3.4
>>> endpoint_value("Nc1nccc(-c2c(-c3ccc(F)cc3)ncn2C2CCCCC2)n1")
0.7
>>> endpoint_value("NC(=O)Nc1cc(-c2cccc(F)c2)sc1C(=O)N[C@H]1CCCNC1")
5.2

Record drug sensitivity score per entry; entries follow.
1. C[C@@H](C(=O)O)c1ccc(-c2ccccc2)c(F)c1
2. CN1CCN(C2CCC(n3cc(-c4ccc(Oc5ccccc5)cc4)c4c(N)ncnc43)CC2)CC1 (configuration not stated)

-- reply
1. 0
2. 9.4

# batch: return drug sensitivity score for each of the 2 molecules below
1. COc1cc(Nc2ncc(F)c(Nc3ccc4c(n3)NC(=O)C(C)(C)O4)n2)cc(OC)c1OC
2. Cc1c2oc3c(C)ccc(C(=O)N[C@@H]4C(=O)N[C@H](C(C)C)C(=O)N5CCC[C@H]5C(=O)N(C)CC(=O)N(C)[C@@H](C(C)C)C(=O)O[C@@H]4C)c3nc-2c(C(=O)N[C@@H]2C(=O)N[C@H](C(C)C)C(=O)N3CCC[C@H]3C(=O)N(C)CC(=O)N(C)[C@@H](C(C)C)C(=O)O[C@@H]2C)c(N)c1=O

-- reply
1. 0
2. 24.3
